These data points were gathered from patent US20100202967A1.

Please go through the items and note down their Kd.
Molecular target: fibrin
Sequence (P02671 36-629, chain 1 of 3): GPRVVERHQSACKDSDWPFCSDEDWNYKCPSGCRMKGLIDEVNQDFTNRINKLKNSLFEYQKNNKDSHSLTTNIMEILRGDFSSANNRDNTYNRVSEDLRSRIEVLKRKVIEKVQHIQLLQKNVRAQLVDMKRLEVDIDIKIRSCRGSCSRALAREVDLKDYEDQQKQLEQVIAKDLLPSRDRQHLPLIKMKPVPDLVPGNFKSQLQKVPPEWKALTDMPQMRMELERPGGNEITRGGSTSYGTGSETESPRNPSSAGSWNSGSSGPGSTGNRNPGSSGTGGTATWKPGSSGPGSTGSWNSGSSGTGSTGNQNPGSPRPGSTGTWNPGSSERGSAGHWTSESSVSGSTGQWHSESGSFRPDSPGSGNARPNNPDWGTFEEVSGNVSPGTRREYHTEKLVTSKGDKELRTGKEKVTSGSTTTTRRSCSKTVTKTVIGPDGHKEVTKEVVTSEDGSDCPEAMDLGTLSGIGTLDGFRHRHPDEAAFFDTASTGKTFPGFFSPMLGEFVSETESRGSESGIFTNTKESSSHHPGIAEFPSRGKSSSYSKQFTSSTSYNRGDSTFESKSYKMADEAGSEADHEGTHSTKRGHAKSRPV
Sequence (P02675 45-491, chain 2 of 3, further chain): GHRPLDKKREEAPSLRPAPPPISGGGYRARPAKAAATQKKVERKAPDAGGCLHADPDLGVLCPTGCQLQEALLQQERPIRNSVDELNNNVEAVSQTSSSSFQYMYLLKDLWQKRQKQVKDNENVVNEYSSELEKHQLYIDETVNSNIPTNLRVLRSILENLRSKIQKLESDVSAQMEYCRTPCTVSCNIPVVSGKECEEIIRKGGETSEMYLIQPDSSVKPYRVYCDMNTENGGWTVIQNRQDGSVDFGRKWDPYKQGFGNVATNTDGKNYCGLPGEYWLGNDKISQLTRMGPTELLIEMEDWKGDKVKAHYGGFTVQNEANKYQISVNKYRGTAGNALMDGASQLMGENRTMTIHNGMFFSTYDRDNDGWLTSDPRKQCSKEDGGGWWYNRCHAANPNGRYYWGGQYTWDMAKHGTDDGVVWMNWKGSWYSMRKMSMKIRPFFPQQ
Sequence (P02679 other isoform, or with tags, fused parts or gaps, chain 3 of 3, further chain): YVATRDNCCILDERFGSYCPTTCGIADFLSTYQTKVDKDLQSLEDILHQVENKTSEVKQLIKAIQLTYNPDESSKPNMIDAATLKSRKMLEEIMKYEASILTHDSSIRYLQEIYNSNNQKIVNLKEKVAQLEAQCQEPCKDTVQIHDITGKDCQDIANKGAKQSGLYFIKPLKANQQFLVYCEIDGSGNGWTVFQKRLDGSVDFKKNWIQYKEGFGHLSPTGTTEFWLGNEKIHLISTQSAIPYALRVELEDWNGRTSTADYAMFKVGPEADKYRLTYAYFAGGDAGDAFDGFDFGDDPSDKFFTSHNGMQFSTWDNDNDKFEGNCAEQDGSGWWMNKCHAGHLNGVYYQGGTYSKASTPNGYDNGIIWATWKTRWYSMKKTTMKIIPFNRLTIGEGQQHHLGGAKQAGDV
Experiment: fluorescence polarization, direct binding (n = 2)
Bridge positions count the residues as written; N and C are the ends. Square brackets hold non-standard residues; d marks the D form. Thf2ca = tetrahydrofuran-2-carboxylic acid; Cha = N[C@@H](CC1CCCCC1)C(=O)O; CF5 = 5-carboxyfluorescein
Give the figure together with its unit, number first.

H-GWQPCPAESWTFCWDPGGGK(CF5)-NH2 (disulfide 5-13) [GWQPC*PAESWTFC*WDPGGGK(CF5)-NH2] :: 240 nM

Batch lookup, Kd per entry.
1. Ac-WQPCPWESWTFCWDPGGGK(CF5)-NH2 (disulfide 4-12) [Ac-WQPC*PWESWTFC*WDPGGGK(CF5)-NH2]
2. Thf2ca-WQPCPWESWTFCWDPGGGK(CF5)-NH2 (disulfide 4-12) [Thf2ca-WQPC*PWESWTFC*WDPGGGK(CF5)-NH2]
3. H-RWQPCPAESWTFCWDPGGGK(CF5)-NH2 (disulfide 5-13) [RWQPC*PAESWTFC*WDPGGGK(CF5)-NH2]
4. Ac-WQPCPWESWT[Cha]CWDPGGGK(CF5)-NH2 (disulfide 4-12) [Ac-WQPC*PWESWT-Cha-C*WDPGGGK(CF5)-NH2]
5. Ac-GWQPCPAESWTFCWDPGGGK(CF5)-NH2 (disulfide 5-13) [Ac-GWQPC*PAESWTFC*WDPGGGK(CF5)-NH2]

Result block:
1. 390 nM
2. 1210 nM
3. 60 nM
4. 200 nM
5. 240 nM
